# experimental system: Epidermal growth factor receptor (Homo sapiens)
# protocol details: Inhibition of EGF Receptor autophosphorylation in A431 cell lysate
assay endpoint: IC50 (nM)
Response body: numeric value in nM, unit text excluded.

query: Query (compound): C=CC(=O)Nc1cc2c(Nc3cc(Cl)c(Cl)cc3F)ncnc2cc1N1CCN(C)CC1 ; field requested: IC50
result: 250

====

# experimental system: Epidermal growth factor receptor (Homo sapiens)
# condition parameters: a-431
# Description: Inhibition of EGF Receptor autophosphorylation in A431 cell lysate; Range = 10000-50000 nM
assay endpoint: IC50 (µM)
Response body: numeric value in µM, unit text excluded.

query: Query (compound): COCC(=O)Nc1ccc2ncnc(Nc3cc(Cl)c(Cl)cc3F)c2c1 ; field requested: IC50
result: 50

====

# experimental system: Epidermal growth factor receptor (Homo sapiens, UniProt P00533)
# Sequence (P00533 whole entry): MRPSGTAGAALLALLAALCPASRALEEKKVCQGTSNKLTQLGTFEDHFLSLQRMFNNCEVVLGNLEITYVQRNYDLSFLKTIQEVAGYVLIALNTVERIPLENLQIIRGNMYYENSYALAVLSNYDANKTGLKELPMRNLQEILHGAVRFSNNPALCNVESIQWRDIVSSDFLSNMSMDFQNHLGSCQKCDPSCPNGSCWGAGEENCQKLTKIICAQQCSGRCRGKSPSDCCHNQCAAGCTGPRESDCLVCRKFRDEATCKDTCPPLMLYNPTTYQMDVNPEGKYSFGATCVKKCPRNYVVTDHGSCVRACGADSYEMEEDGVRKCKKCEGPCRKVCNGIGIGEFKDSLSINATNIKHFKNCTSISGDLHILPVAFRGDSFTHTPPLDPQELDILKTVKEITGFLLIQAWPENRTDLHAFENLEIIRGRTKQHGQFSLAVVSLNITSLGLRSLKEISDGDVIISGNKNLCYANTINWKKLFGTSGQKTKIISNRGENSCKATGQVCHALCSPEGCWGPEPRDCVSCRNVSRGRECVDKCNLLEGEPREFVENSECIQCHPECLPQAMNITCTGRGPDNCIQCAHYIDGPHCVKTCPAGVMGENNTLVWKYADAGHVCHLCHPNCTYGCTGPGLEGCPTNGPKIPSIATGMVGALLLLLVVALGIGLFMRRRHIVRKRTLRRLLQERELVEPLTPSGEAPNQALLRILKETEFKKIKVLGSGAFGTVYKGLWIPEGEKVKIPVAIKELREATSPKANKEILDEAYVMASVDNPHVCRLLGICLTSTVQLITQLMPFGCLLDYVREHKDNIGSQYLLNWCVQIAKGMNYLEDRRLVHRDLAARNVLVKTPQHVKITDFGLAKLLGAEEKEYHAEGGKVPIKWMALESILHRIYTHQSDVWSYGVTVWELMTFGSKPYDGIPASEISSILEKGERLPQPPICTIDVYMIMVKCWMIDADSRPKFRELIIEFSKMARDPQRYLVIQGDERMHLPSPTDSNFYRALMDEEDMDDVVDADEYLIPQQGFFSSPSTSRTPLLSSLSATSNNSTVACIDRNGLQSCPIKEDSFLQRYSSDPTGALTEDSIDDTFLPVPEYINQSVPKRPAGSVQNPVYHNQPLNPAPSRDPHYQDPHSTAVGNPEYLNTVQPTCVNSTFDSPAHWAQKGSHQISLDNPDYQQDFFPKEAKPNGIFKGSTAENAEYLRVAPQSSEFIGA
# protocol details: Inhibition of EGF Receptor autophosphorylation in A431 cell lysate
assay endpoint: IC50 (nM)

Please review the entries below; each comes with its answer.
CN(C)C/C=C/C(=O)Nc1ccc2ncnc(Nc3cccc(I)c3)c2c1	0.94
O=C(CCl)Nc1ccc2ncnc(Nc3cc(Cl)c(Cl)cc3F)c2c1	0.07
C=CC(=O)Nc1cc2c(Nc3cc(Cl)c(Cl)cc3F)ncnc2cc1N1CCN(C)CC1	6000
COc1cc2ncnc(Nc3cc(Cl)c(Cl)cc3F)c2cc1OC	0.208

P = COCC(=O)Nc1ccc2ncnc(Nc3cc(Cl)c(Cl)cc3F)c2c1
Q = COCC(=O)Nc1ccc2ncnc(Nc3cccc(I)c3)c2c1
query: Lab notebook, comparison: P versus Q , higher IC50 goes to which? Lab log: write the label of the selected item as the result.
result: P
